target.entity: sGC α1/β1 heterodimer stably expressed in CHO-K1 cell line (CHO-K1/sGC) (Homo sapiens, UniProt Q02108+Q02153)
Construct: expressed in transfected cells
protocol.description: Cell-based sGC Functional Assay (CASA Assay), cGMP generation
condition.description: CHO-K1/sGC cells, 1 hr at 37° C., cGMP by HTRF, 4P fit; presence or absence of 1 μM DETA-NO not given; read-out: IP (nM) (inflection point)
reported.property: log10 of EC50 (log10 of the value in nM)
Reminder: these figures are log10 of reported EC50, in nM before transformation.

| compound | log10 of EC50 |
| --- | --- |
| C[C@@]1(c2ccc(F)cc2)C(=O)Nc2nc(-c3cn4ncnc4c(Cc4ccc(F)cc4)n3)nc(N)c21 [Example 85B] | 1.03 |
| CCCCc1nc(-c2nc(N)c3c(n2)NC(=O)C3(C)c2ccc(Cl)c(F)c2)cn2ncnc12 (stereo not shown) [Example 62B] | 1.71 |
| Cc1nc2c(CCC(F)(F)C(F)(F)F)nc(-c3nc(O)c4c(n3)NC(=O)C4(C)c3ccc(Cl)c(F)c3)cn2n1 (stereo not shown) [Example 132B] | 2.65 |
| CCCCc1nc(-c2nc(N)c3c(n2)NC(=O)C3(C)c2ccc(F)cn2)cn2ncnc12 (stereo not shown) [Example 61B] | 0.99 |
| CC1(c2ccc(Cl)c(F)c2)C(=O)Nc2nc(-c3cn4ncnc4c(CCC(F)(F)C(F)(F)F)n3)nc(N)c21 (stereo not shown) | 1.32 |
| CC1(c2ccc(O)cn2)C(=O)Nc2nc(-c3cn4ncnc4c(CCCC(F)(F)F)n3)nc(N)c21 (stereo not shown) [Example 111A] | 2.57 |

Could you share which log10 of EC50 value was measured for CC1(c2ccccc2)C(=O)Nc2nc(-c3cn4ncnc4c(CCC(F)(F)C(F)(F)F)n3)nc(N)c21 (stereo not shown) [Example 12B] ?
1.05

----------
target.entity: sGC α1/β1 heterodimer stably expressed in CHO-K1 cell line (CHO-K1/sGC) (Homo sapiens, UniProt Q02108+Q02153)
Construct: expressed in transfected cells
Sequence (Q02108 1-690): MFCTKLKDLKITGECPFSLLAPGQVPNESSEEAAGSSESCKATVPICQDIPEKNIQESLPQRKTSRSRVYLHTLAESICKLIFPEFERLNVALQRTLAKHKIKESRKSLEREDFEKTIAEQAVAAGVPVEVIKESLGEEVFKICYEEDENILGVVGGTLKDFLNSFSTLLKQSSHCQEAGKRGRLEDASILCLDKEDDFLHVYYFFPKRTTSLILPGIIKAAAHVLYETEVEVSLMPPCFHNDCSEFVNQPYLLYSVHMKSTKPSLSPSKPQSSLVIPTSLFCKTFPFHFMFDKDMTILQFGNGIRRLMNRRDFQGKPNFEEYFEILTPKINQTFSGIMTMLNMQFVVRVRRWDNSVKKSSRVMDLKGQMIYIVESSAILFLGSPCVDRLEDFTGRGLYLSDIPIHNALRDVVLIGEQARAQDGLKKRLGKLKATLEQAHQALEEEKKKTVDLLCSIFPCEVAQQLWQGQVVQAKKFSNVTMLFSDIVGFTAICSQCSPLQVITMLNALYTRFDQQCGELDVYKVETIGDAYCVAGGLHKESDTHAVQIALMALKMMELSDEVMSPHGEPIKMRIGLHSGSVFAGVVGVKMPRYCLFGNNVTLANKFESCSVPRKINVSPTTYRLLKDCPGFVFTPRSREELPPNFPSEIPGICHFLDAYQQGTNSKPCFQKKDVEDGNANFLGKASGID
Sequence (Q02153 1-619): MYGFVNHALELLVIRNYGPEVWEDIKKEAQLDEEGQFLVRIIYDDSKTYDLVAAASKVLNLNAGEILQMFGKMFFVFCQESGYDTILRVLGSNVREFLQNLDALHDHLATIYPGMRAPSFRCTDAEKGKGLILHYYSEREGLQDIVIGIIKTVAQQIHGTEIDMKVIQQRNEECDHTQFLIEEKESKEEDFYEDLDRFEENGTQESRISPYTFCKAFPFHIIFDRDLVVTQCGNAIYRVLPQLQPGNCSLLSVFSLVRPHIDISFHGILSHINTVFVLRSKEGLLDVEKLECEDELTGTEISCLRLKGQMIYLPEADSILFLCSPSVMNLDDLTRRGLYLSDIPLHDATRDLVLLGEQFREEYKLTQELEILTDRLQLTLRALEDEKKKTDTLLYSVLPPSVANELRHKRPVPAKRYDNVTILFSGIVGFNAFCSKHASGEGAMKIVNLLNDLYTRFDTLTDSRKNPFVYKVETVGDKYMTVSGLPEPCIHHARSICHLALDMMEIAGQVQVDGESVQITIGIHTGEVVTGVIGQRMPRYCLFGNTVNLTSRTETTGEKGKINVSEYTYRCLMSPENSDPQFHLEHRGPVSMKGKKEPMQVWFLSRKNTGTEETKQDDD
protocol.description: Cell-based sGC Functional Assay (CASA Assay), cGMP generation
condition.description: CHO-K1/sGC cells, 1 hr at 37° C., cGMP by HTRF, 4P fit; presence or absence of 1 μM DETA-NO not given; read-out: IP (nM) (inflection point)
reported.property: EC50
Please provide the amount together with its unit, number first.

Consider the reported EC50 for these compounds:
| compound | reported.property | result.value |
| --- | --- | --- |
| CCCCc1nc(-c2nc(N)c3c(n2)NC(=O)[C@@]3(C)c2ccc(F)cc2)cn2ncnc12 [Example 60A] | EC50 | 22.6 nM |
| CC1(c2ccccc2F)C(=O)Nc2nc(-c3cn4ncnc4c(CCC(F)(F)C(F)(F)F)n3)nc(O)c21 (stereo not shown) [Example 170A] | EC50 | 9.5 nM |
| C[C@@]1(c2ccc(F)cc2)C(=O)Nc2nc(-c3cn4ncnc4c(CCC(F)(F)C(F)(F)F)n3)nc(N)c21 | EC50 | 187 nM |

Could you share which EC50 value was measured for O=C1Nc2nc(-c3cn4ncnc4c(CCCC(F)(F)F)n3)nc(O)c2C1(c1ccc(Cl)cc1)C1CC1 (stereo not shown) [Example 140B] ?
277 nM

Could you share which EC50 value was measured for CC1(c2ccc(Cl)cn2)C(=O)Nc2nc(-c3cn4ncnc4c(CCC(F)(F)C(F)(F)F)n3)nc(O)c21 (stereo not shown) [Example 120A] ?
155 nM

These data points were gathered from patent US9822130B2.
